- Test system: HCT-116 colon
- Procedure text: NCI tumour cell line growth inhibition, 48 h
Observable: TGI

// worked examples, TGI included
Molecule	Assay system	TGI
CO/N=C(/C(=O)OC)c1ccccc1COc1cccc(C(F)(F)F)c1	HCT-116 colon	> 100 µM
OC(C/C(=N\N=C(/CC(O)(C(F)(F)F)C(F)(F)F)c1ccccc1)c1ccccc1)(C(F)(F)F)C(F)(F)F	HCT-116 colon	> 10 µM
CCOC(=O)C(=CNC(=S)Nc1c(CC)cccc1CC)C(=O)OCC	HCT-116 colon	> 100 µM
N/C(COc1ccc(Cl)cc1)=N\NC(=O)c1ccncc1	HCT-116 colon	> 100 µM
Nc1ccccc1OCc1cc(=O)c(OCc2ccccc2)co1	HCT-116 colon	> 100 µM

Now, please, on to the next molecule.
Please report the recorded TGI for CCOC1C=CCCO1 (centres undefined) . > 100 µM

* * *

Entries and their TGI values follow.
- System: COLO 205 colon
- Procedure text: NCI tumour cell line growth inhibition, 48 h

Molecule	Result
Nc1cccc(C#Cc2cccc(C#Cc3cccc(N)n3)n2)n1	> 100 µM
CC1=NN(C(=O)c2ccccc2O)C(c2ccccc2Cl)C1C(=O)Nc1ccccc1 (stereo unspecified)	> 100 µM
COc1ccccc1/C=N/N=C(\N)NO	> 100 µM
CC(C)c1nc2c(Cl)c3ncccc3cc2[nH]c1=O	> 100 µM
O=C(Cc1ccccc1)NNc1nc(NNC(=O)c2ccncc2)nc(Nc2ccc(Cl)cc2)n1	> 10 µM

Now, please, on to the next molecule.
Please report the recorded TGI for CC(C)(c1ccc(OC#N)cc1)c1ccc(OC#N)cc1 . > 67.7 µM

* * *

- Tested on: OVCAR-4 ovarian
- Procedure text: NCI tumour cell line growth inhibition, 48 h
Entries and their TGI values follow.

// worked examples, TGI included
Compound	TGI
COc1cc(C2c3cc4c(cc3OC(NCc3ccccc3)C2C)OCO4)cc(OC)c1OC (stereo not given)	> 100 µM
COc1ccc(/C(C)=N/NC(=O)c2ccncc2)cc1OC	> 10 µM
COc1cc(-c2oc3c(OC)c(O)c(OC)c(O)c3c(=O)c2OC)ccc1O	> 100 µM
Clc1ccccc1-c1nnc2c(-c3ccccc3)nc3ccccc3n12	> 100 µM

Hi! What's the reported TGI for O=C1C[C@H]2CC3(CC[C@H]2CN1)OCCO3 on OVCAR-4 ovarian? > 100 µM

* * *

- System: RXF 393 renal
- Procedure text: NCI tumour cell line growth inhibition, 48 h
Observable: TGI

// worked examples, TGI included
Molecule	Assay system	Result
Cc1cc(N)ccc1C=O	RXF 393 renal	> 100 µM
CC1=NN(C(=O)c2ccccc2O)C(c2ccccc2Cl)C1C(=O)Nc1ccccc1 (stereo not drawn)	RXF 393 renal	> 100 µM
COc1cc([C@@H]2OC(=O)C3C2C(=O)O[C@H]3c2cc(OC)c(OC)c(OC)c2)cc(OC)c1OC (stereo partly drawn)	RXF 393 renal	> 100 µM

Hi! What's the reported TGI for CC(C)CCCC(C)[C@H]1CC[C@H]2[C@@H]3CC[C@H]4C[C@@H](CCC=C(c5cc(Cl)c(O)c(C(=O)O)c5)c5cc(Cl)c(O)c(C(=O)O)c5)CC[C@]4(C)[C@H]3CC[C@]12C (stereo partly drawn) (tested in a mixture with another compound) on RXF 393 renal? > 50 µM

Quick one: O=C(N/C(=C\c1ccc(Oc2ccc(Cl)c(Cl)c2)cc1)c1nc2ccccc2[nH]1)c1ccccc1 28.1 µM

Quick one: ClCc1ccc2ccc3ccc(CCl)nc3c2n1 3.17 µM

Quick one: CS/C(c1ccccc1)=[N+](/C)[O-] > 100 µM

Quick one: COC(=O)C1(C)CCCC2(C)C3CCC4CC3(C=C4CO)CCC12 (stereo not drawn) > 100 µM

* * *

- System: KM12 colon
- Procedure text: NCI tumour cell line growth inhibition, 48 h
Observable: TGI

// worked examples, TGI included
Compound	TGI
O=C1C(=O)c2ccccc2C(O)=C1CCCCCCCCC1CCCCC1	23.1 µM
COc1cc(C2(O)c3ccccc3C3=NCCN32)cc(OC)c1OC (stereo not given)	> 100 µM
CCN1C[C@]2(C)CC[C@H](OCc3ccccc3)C34C5C[C@@H]6CC[C@](O)(C(C[C@@H]32)C14)C5[C@H]6OCc1ccccc1 (stereo not given in full)	> 100 µM
CC(C)(c1ccc(OC#N)cc1)c1ccc(OC#N)cc1	> 100 µM
COc1ccc2nc3ccc(OC)cc3c(SCC3CO3)c2c1 (stereo not given)	34.4 µM
COc1ccc2c(c1)OC(N)=C(C#N)C2c1ccc(F)cc1 (stereo not given)	25.8 µM
N#CC(C#N)=C1SCC(=O)CS1	> 100 µM
Cc1ccc(/C(O)=C/c2nc3ccccc3[nH]c2=O)c(C)c1	> 61.5 µM

Please report the recorded TGI for CC1=Nn2c(nnc2-c2ccc(N)cc2)NC(C)(C)C1 . > 100 µM

Quick one: C/C(=C\CC[C@]1(C)OC(C)(C)OC1CC/C(C)=C/CO[Si](c1ccccc1)(c1ccccc1)C(C)(C)C)CC/C=C/CO[Si](C)(C)C(C)(C)C (stereo not given in full) > 100 µM

Quick one: CC(C)c1ccc2[nH]c(O)c(C3=Nc4ccccc4C3=O)c2c1 > 100 µM

Quick one: Cc1cccc2c1C(=O)OC2(C)c1cccc2ccccc12 (stereo not given) > 100 µM

Quick one: CSC1C(=O)c2ccccc2/C(=N/Nc2nc3ccccc3s2)C1C (stereo not given) > 50 µM

Quick one: Cc1ccc(S(=O)(=O)c2c3[nH]c4ccccc4nc3n3c2nc2ccccc23)cc1 > 100 µM

Quick one: COc1ccc2nc(C)cc(Nc3ccccc3O)c2c1 > 100 µM

* * *

Entries and their TGI values follow.
- Test system: A498 renal
- Procedure text: NCI tumour cell line growth inhibition, 48 h

// worked examples, TGI included
Compound	Result
CCN1C[C@]2(C)CC[C@H](OCc3ccccc3)C34C5C[C@@H]6CC[C@](O)(C(C[C@@H]32)C14)C5[C@H]6OCc1ccccc1 (stereo partly specified)	> 100 µM
Cc1nn(C(=O)Cc2ccccc2)c2c1C(c1ccccc1[N+](=O)[O-])SC(N)=N2 (stereo unspecified)	> 100 µM
CC(C)(C)[Si](C)(C)OCC#C[C@@]1(O)CCCCC1CC(Sc1ccccc1)Sc1ccccc1 (stereo partly specified)	30.4 µM
OCCNCCNc1c2ccccc2nc2oc3ccccc3c12	21.9 µM

Please report the recorded TGI for N/C(COc1ccc(Cl)cc1)=N\NC(=O)c1ccncc1 . > 100 µM

Quick one: O=C1C[C@H]2CC3(CC[C@H]2CN1)OCCO3 > 100 µM

Quick one: O=[N+]([O-])/C=C/COCc1cc2c(cc1Br)OCO2 86.4 µM

Quick one: Cc1ccc(S(=O)(=O)c2c3[nH]c4ccccc4nc3n3c2nc2ccccc23)cc1 > 100 µM

Quick one: Cc1ccc(CCCCCOc2ccc(C3=NCCO3)cc2)s1 4.47 µM

Quick one: O=C1CCc2cc3c(cc21)CC1(Cc2cc4c(cc2C1)CCCC4)C3 > 100 µM

* * *

Entries and their TGI values follow.
- Tested on: CAKI-1 renal
- Procedure text: NCI tumour cell line growth inhibition, 48 h

Compound	Assay system	TGI
FC(F)(F)C1(C(F)(F)F)O[SiH]2(OC(C(F)(F)F)(C(F)(F)F)c3ccccc32)c2ccccc21	CAKI-1 renal	87.1 µM
COC(=O)CCC(C)C1CCC2C3CCC4CC5CCC4(C)C3(O5)C(Br)C(Br)C12C (stereo not drawn)	CAKI-1 renal	> 100 µM
O=C1C(=C(C(=O)c2ccccc2)C(=O)c2ccccc2)OC(c2ccccc2)=C1C(=O)c1ccccc1	CAKI-1 renal	11.2 µM
Clc1ccc(-c2nnc(C34CC5CC(CC(C5)C3)C4)o2)cc1	CAKI-1 renal	> 100 µM
CC(C)C[C@@H]1NC(=O)[C@@H]2CCCN2C(=O)[C@@H]2CCCN2C(=O)[C@H](CC(C)C)NC(=O)[C@H](CO)NC(=O)[C@H](CCCCN)NC(=O)[C@H]([C@H](C)O)NC(=O)[C@@H]2CCCC[C@@H](NC1=O)C(=O)N[C@@H](Cc1ccccc1)C(=O)N1CCC[C@H]1C(=O)N[C@@H](CC(=O)O)C(=O)NCC(=O)N[C@@H](CCCN=C(N)N)C(=O)N2	CAKI-1 renal	> 50 µM

Please report the recorded TGI for C=CC(=O)Nc1cccc(C)c1Nc1ncc2cc(-c3c(Cl)c(OC)cc(OC)c3Cl)ccc2n1 . > 100 µM

Quick one: COc1ccc2c(c1)N=C1CSC(c3c(Cl)cccc3[N+](=O)[O-])N1C2 (stereo not drawn) > 100 µM

Quick one: Nc1cccc(C#Cc2cccc(C#Cc3cccc(N)n3)n2)n1 > 100 µM

Quick one: Nc1ccccc1OCc1cc(=O)c(OCc2ccccc2)co1 > 100 µM

Quick one: NS(=O)(=O)c1nnc(/N=C(/CCC(=O)O)C(=O)O)s1 > 100 µM

Quick one: COc1cc(/C=C2/C(=O)NC(Cc3cc(OC)c(OC)c(C)c3OC)C(=O)N2Cc2ccccc2)c(OC)c(C)c1OC (stereo not drawn) > 100 µM
